System: rodent lifetime carcinogenesis bioassay, tumor incidence TD50
Assay: carcinogenic potency in animals, long-term in vivo studies, CPDB compilation (AID 1745844)
Details: mouse; strain B6C3F1; males; inhaled; site: Harderian gland; lesion: adenoma; dosed 95 weeks; study length 95 weeks
Observable: TD50 (mg/kg/day)
One number for each entry, in mg/kg/day.

Record FC(F)=C(F)F , field TD50: 1390

###

Test system: rodent lifetime carcinogenesis bioassay, tumor incidence TD50
Experiment: carcinogenic potency in animals, long-term in vivo studies, CPDB compilation (AID 1745844)
Conditions: rat; strain BD; both sexes; by gavage; site: brain; lesion: several types; types named in the paper; dosed 104 weeks; study length 104 weeks
Observable: TD50

Record CN(C)N=Nc1ccccc1 , field TD50: 5.81 mg/kg/day

###

Test system: rodent lifetime carcinogenesis bioassay, tumor incidence TD50
Assay: carcinogenic potency in animals, long-term in vivo studies, CPDB compilation (AID 1745844)
Conditions: rat; strain F344/DuCrj; males; in feed; site: liver; lesion: hepatocellular carcinoma; dosed 52 weeks; study length 52 weeks
Observable: TD50

Record Cc1c(N)nc(C)c2c1[nH]c1ccccc12 , field TD50: 0.574 mg/kg/day

###

Tested on: rodent lifetime carcinogenesis bioassay, tumor incidence TD50
Assay: carcinogenic potency in animals, long-term in vivo studies, CPDB compilation (AID 1745844)
Conditions: mouse; strain B6C3F1; females; in feed; site: lung; lesion: alveolar-cell tumor; dosed 72 weeks; study length 84 weeks
Observable: TD50 (mg/kg/day)
Answers are plain numbers, in mg/kg/day.

Record CCOc1ccc(NC(=O)CC(C)O)cc1 (stereo unspecified) , field TD50: 11300

###

Test system: rodent lifetime carcinogenesis bioassay, tumor incidence TD50
Assay: carcinogenic potency in animals, long-term in vivo studies, CPDB compilation (AID 1745844)
Settings: mouse; strain B6C3F1; females; in feed; site: gastric mucosa; lesion: carcinoid tumor, malignant; dosed 91 weeks; study length 91 weeks
Observable: TD50

Record NC(=O)CCCCn1ccc(NC(N)=NCC(F)(F)F)n1 , field TD50: 956 mg/kg/day

###

System: rodent lifetime carcinogenesis bioassay, tumor incidence TD50
Assay: carcinogenic potency in animals, long-term in vivo studies, CPDB compilation (AID 1745844)
Settings: monkey; strain Rhesus [Macaca mulatta]; both sexes; in feed; site: pharynx; lesion: squamous-cell carcinoma; dosed 928 weeks; study length 1139 weeks
Observable: TD50

Record CN(N=O)C(N)=O , field TD50: 44.2 mg/kg/day

###

Tested on: rodent lifetime carcinogenesis bioassay, tumor incidence TD50
Experiment: carcinogenic potency in animals, long-term in vivo studies, CPDB compilation (AID 1745844)
Settings: rat; strain Fischer 344; females; oral dosing; site: all sites + uterus; lesion: leukemia + lymphoma + endometrial stromal polyp; dosed 78 weeks; study length 104 weeks
Observable: TD50
# output: number + unit

Record COc1cc(-c2ccc(N=C=O)c(OC)c2)ccc1N=C=O , field TD50: 1450 mg/kg/day

###

Can you tell me TD50 for the items I'm about to list?
Test system: rodent lifetime carcinogenesis bioassay, tumor incidence TD50
Test: carcinogenic potency in animals, long-term in vivo studies, CPDB compilation (AID 1745844)
Conditions: mouse; strain B6C3F1; males; by gavage; site: any site (literature study); lesion: several types; types named in the paper; dosed 103 weeks; study length 104 weeks
The source made the active and inactive calls. How the calls were made is not given here.

O=[N+]([O-])c1ccc(Nc2ccc(Nc3ccccc3)c(S(=O)(=O)O)c2)c([N+](=O)[O-])c1: 372 mg/kg/day
CC(O)c1ccccc1 (configuration not stated): 2230 mg/kg/day (inactive)

Hello, I would appreciate it if you could give TD50 for each entry below.
1. COc1c(Cl)c(Cl)c(Cl)c(Cl)c1Cl
2. CCCCCl

Marked response:
["40.2 mg/kg/day", "423 mg/kg/day"]
